test system: MCF10A; assay: percent viability (nuclei count relative to siNT); higher = more viable cells; conditions: 20 nM; 72 h
Mark each entry T if its percent viability sits below 40%, and F for all others.

Solved entries (count: 6):
UGAGGUAGGAGGUUGUAUAGUU [hsa-let-7e-5p]    T
AGCUACAUCUGGCUACUGGGU [hsa-miR-222-3p]    F
AAAAACCACAAUUACUUUUGCACCA [hsa-miR-548t-3p]    F
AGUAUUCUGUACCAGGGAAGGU [hsa-miR-630]    F
UGGAUUUUUGGAUCAGGGA [hsa-miR-1290]    F
AAAAGCUGGGUUGAGAGGGCGA [hsa-miR-320a]    T

Shift focus to the following entry.
Task: Consider the sequence AGUGGGGAACCCUUCCAUGAGG [hsa-miR-491-5p] . Is its percent viability strictly less than 40%?
Output: T
